All figures here come from patent US11655268B2.

- assay.overview: in vitro
- test.context: cat
What CC50 was measured for each of the following?

The recorded CC50 for O=C(Nc1ccn([C@@H]2O[C@H](CO)[C@@H](O)C2(F)F)c(=O)n1)c1cccnn1 is > 100 µM

The recorded CC50 for O=C(Nc1ccn([C@@H]2O[C@H](CO)[C@@H](O)C2(F)F)c(=O)n1)c1cccnc1 is 56 µM

The recorded CC50 for O=C(Nc1ccn([C@@H]2O[C@H](CO)[C@@H](O)C2(F)F)c(=O)n1)c1ccccn1 is > 100 µM

The recorded CC50 for O=C1CCCN1c1ccn([C@@H]2O[C@H](CO)[C@@H](O)C2(F)F)c(=O)n1 is > 100 µM

The recorded CC50 for O=C(Nc1ccn([C@@H]2O[C@H](CO)[C@@H](O)C2(F)F)c(=O)n1)c1ccc(F)cn1 is > 100 µM

The recorded CC50 for Cc1ccc(C(=O)Nc2ccn([C@@H]3O[C@H](CO)[C@@H](O)C3(F)F)c(=O)n2)cn1 is > 100 µM

The recorded CC50 for Nc1ccn([C@@H]2O[C@H](CO)[C@@H](O)C2(F)F)c(=O)n1 [Gemcitabine, reference compound] is 92 µM

The recorded CC50 for Cc1ccc(C(=O)Nc2ccn([C@@H]3O[C@H](CO)[C@@H](O)C3(F)F)c(=O)n2)nc1 is 92 µM
